System: Wild type
PROTOCOL_TEXT: S. aureus survival, RN4220 and DeltatarO strains – OD600, teichoic acid synthesis inhibitors, primary screen (AID 463173)
CONDITION_NOTES: S. aureus RN4220 wild type/DeltatarO growth, OD600, 18 h, hits give low values, screened at 18.75 µg/mL (by protocol)
The campaign covered roughly 52,000 compounds. About 1,700 (3.3%) were called active. Many of the other results were omitted from the sample, so actives are more common in it than they were.
survival strictly under 70% means Satisfied; at 70% or over means Not satisfied.

# SMILES_TEXT, ASSIGNED_CATEGORY
measured = [
    ("COC(=O)c1ccc(Cn2c(SCC(=O)N(C)c3ccccc3)nc3ccccc32)cc1", "Not satisfied"),
    ("Cc1ccc(CNC(=O)Cn2c(SCC(=O)Nc3ccc(F)cc3)nc3ccccc32)cc1", "Not satisfied"),
    ("COc1cccc(Cn2c(SCC(=O)N(C)c3ccccc3)nc3ccccc32)c1", "Satisfied"),
    ("Cc1ccccc1NC(=O)Cn1c(SCC(=O)Nc2ccc(F)cc2)nc2ccccc21", "Not satisfied"),
]

API: query returns whether the molecule falls strictly under 70% in survival. Query: CC(=O)c1cccc(NC(=O)Cn2c(SCC(=O)Nc3ccc(F)cc3)nc3ccccc32)c1
Satisfied
